Recorded IC50 values for a group of compounds are listed next.
Target: Muscarinic acetylcholine receptor
Assay: Tested in vitro for its ability to displace 3[H] clozapine from Muscarinic acetylcholine receptor in rat brain
Assay type: tissue-based
measured-quantity: IC50

| item-smiles | result |
| --- | --- |
| CN1CCN(C2=Cc3cc(Cl)ccc3Oc3ccccc32)CC1 | 1.97 µM |
| CN1CCN(C2=Cc3ccccc3Oc3ccccc32)CC1 | 2.29 µM |
| CN1CCN(C2=Nc3ccccc3Nc3ccc(Cl)cc32)CC1 | 0.028 µM |
| CN1CCN(C2=Cc3ccccc3Oc3ccc(Cl)cc32)CC1 | 2.027 µM |

* * *

Target: Dopamine receptor
Test: Displacement of 3[H]spiroperidol from Dopamine receptor in rat brain
measured-quantity: IC50 (µM)

| item-smiles | value-units | comparator | measured-number |
| --- | --- | --- | --- |
| CN1CCN(C2=Cc3ccccc3Oc3ccccc32)CC1 | µM | = | 1.5 |
| CN1CCN(C2=Nc3ccccc3Nc3ccccc32)CC1 | µM | > | 10 |
| CN1CCN(C2=Cc3cc(Cl)ccc3Oc3ccccc32)CC1 | µM | = | 0.357 |
| CN1CCN(C2=Cc3ccccc3Oc3ccc(Cl)cc32)CC1 | µM | = | 0.027 |

* * *

Assay: Tested in vitro for its ability to displace 3[H] clozapine from non-muscarinic receptor in rat brain
Format: tissue-based
measured-quantity: IC50 (nM)

| molecule | measured-number |
| --- | --- |
| CN1CCN(C2=Cc3ccccc3Cc3ccc(Cl)cc32)CC1 | 10 |
| CN1CCN(C2=Cc3ccccc3Oc3ccc(Cl)cc32)CC1 | 7.3 |
| CN1CCN(C2=Nc3cc(Cl)ccc3Nc3ccccc32)CC1 [CLOZAPINE] | 13 |
| CN1CCN(C2=Cc3cc(Cl)ccc3Oc3ccccc32)CC1 | 9.4 |
| CN1CCN(C2=Cc3ccccc3Cc3ccccc32)CC1 | 3.7 |
| CN1CCN(C2=Cc3cc(Cl)ccc3Cc3ccccc32)CC1 | 13 |

* * *

Recorded IC50 values for a group of compounds are listed next.
Assay: Tested in vitro for its ability to displace 3[H] clozapine from non-muscarinic receptor in rat brain
Assay type: tissue-based

| compound | IC50 [nM] |
| --- | --- |
| CN1CCN(C2=Nc3ccccc3Nc3ccccc32)CC1 | 25 |
| CN1CCN(C2=Cc3ccccc3Oc3ccccc32)CC1 | 4 |
| CN1CCN(C2=Nc3ccccc3Nc3ccc(Cl)cc32)CC1 [ISOCLOZAPINE] | 17 |
